Taken from PubChem BioAssay (NCI).

- Tested on: OVCAR-4 ovarian
- ASSAY_COMMENT: NCI-60 one-dose screen, 48 h (100 = growth as untreated, 0 = no growth, -100 = all killed)
- DETAILS: 10 µM unless noted
About 83,000 compounds went through this panel and 20% of them were active in at least one assay; those are over-represented in the sample as a whole. Calls of active or inactive are those of the source. How the source made its calls: active means growth percent below 10; inactive means the rest.
ENDPOINT_NAME: growth

>  <COMPOUND>
C#CCOc1ccccc1C(Nc1ccccc1)c1nnnn1C1CCCCC1 (centres undefined)

>  <ENDPOINT_NAME>
growth

>  <TEST_RESULT>
94.5% (inactive)

$$$$
>  <COMPOUND>
COc1cc(OC)c(S(N)(=O)=O)cc1C(=O)/C=C/c1ccccc1

>  <ENDPOINT_NAME>
growth

>  <TEST_RESULT>
77.7% (inactive)

$$$$
>  <COMPOUND>
COc1ccc([C@@H]2[C@@H](O)C(=O)N2c2cc(OC)c(OC)c(OC)c2)cc1Cl

>  <ENDPOINT_NAME>
growth

>  <TEST_RESULT>
68.7% (inactive)

$$$$
>  <COMPOUND>
O=C(CSc1ccc(-c2nc3ccccc3[nH]2)cn1)N1CCN(c2ccccc2F)CC1

>  <ENDPOINT_NAME>
growth

>  <TEST_RESULT>
24.2% (inactive)

$$$$
>  <COMPOUND>
O=C(CSc1nnc(-c2cccs2)n1-c1ccccc1)Nc1ccc(F)cc1

>  <ENDPOINT_NAME>
growth

>  <TEST_RESULT>
96.4% (inactive)

$$$$
>  <COMPOUND>
Oc1ccc(CSc2nnc(-c3ccc(Br)cc3)n2-c2ccccc2)c2cccnc12

>  <ENDPOINT_NAME>
growth

>  <TEST_RESULT>
35.7% (inactive)

$$$$
>  <COMPOUND>
CS(=O)c1nccc(-c2c(-c3ccc(F)c(OCCc4ccccc4)c3)nc3sccn23)n1 (centres undefined)

>  <ENDPOINT_NAME>
growth

>  <TEST_RESULT>
102% (inactive)

$$$$
>  <COMPOUND>
O=[N+]([O-])c1ccc(-c2nnc(SCc3ccc(O)c4ncccc34)o2)cc1

>  <ENDPOINT_NAME>
growth

>  <TEST_RESULT>
17.3% (inactive)

$$$$
>  <COMPOUND>
C#C[C@]1(O)CC[C@H]2[C@@H]3CC=C4c5sc(C6CC6)nc5CC[C@]4(C)[C@H]3CC[C@@]21C

>  <ENDPOINT_NAME>
growth

>  <TEST_RESULT>
107% (inactive)

$$$$

###

The following compounds are shown together with reported growth values.
- System: NCI-H226 lung
- ASSAY_COMMENT: NCI-60 one-dose screen, 48 h (100 = growth as untreated, 0 = no growth, -100 = all killed)
- DETAILS: 10 µM unless noted
- Description: Growth inhibition of the NCI-H226 human Non-Small Cell Lung tumor cell line is measured as a screen for anti-cancer activity. Cells are grown in 96 well plates and exposed to the test compound for 48 hours. Compounds are tested at a single concentration, which is 10^-5 M for most compounds. The reported endpoint is percent growth (GI% or GIPRCNT), where numbers from 0 - 100% represent growth inhibition, and numbers from -100% - 0 represent cell death. […]
This is part of a sample that, as a whole, favours compounds with a hit. Of some 83,000 tested, about 20% had one in any assay.

>  <COMPOUND>
COc1cc2oc(-c3cccc(NC(=O)c4cc(NC(=O)[C@H](C)NC(=O)OC(C)(C)C)ccc4C)c3)cc(=O)c2c(OC)c1OC

>  <growth / %>
80.6

$$$$
>  <COMPOUND>
Nc1nc(N)c2c(n1)NC(c1ccc(Cl)cc1)CC(c1ccc(Nc3nc(NCCO)nc(Nc4ccc(Cl)cc4)n3)cc1)=N2 (stereo not drawn)

>  <growth / %>
81.8

$$$$
>  <COMPOUND>
CCOC(=O)/C=c1\sc2n(c1=O)C1C(NN=2)N(CC)C(=O)N1CC (stereo not drawn)

>  <growth / %>
81.2

$$$$

###

- Tested on: KM12 colon
- ASSAY_COMMENT: NCI-60 one-dose screen, 48 h
- DETAILS: 10 µM unless noted
This is part of a sample that, as a whole, favours compounds with a hit. Of some 83,000 tested, about 20% had one in any assay. The source made the active and inactive calls. How the source made its calls: active means growth percent below 10; inactive means the rest.
Classes used: 1 (yes) = active, 0 (no) = inactive

>  <MOLECULE>
COc1ccc(CCN2C(=O)CSC2=S)cc1OC

>  <ASSIGNED_LABEL>
0 (no)

$$$$
>  <MOLECULE>
C#C[C@]1(O)CC[C@H]2[C@@H]3CC=C4c5sc(Nc6ccncc6)nc5CC[C@]4(C)[C@H]3CC[C@@]21C

>  <ASSIGNED_LABEL>
1 (yes)

$$$$
>  <MOLECULE>
O=C(COc1ccc(C2SCC(=O)N2c2ccc(F)cc2)cc1)c1ccccc1 (stereo not given)

>  <ASSIGNED_LABEL>
0 (no)

$$$$
>  <MOLECULE>
O=C(Nc1ccc(F)cc1)c1cc(-c2ccc(F)cc2F)ccc1O

>  <ASSIGNED_LABEL>
1 (yes)

$$$$
>  <MOLECULE>
CSc1nccc(-c2c(-c3ccc(F)c(OCc4ccc(F)cc4)c3)nc3sccn23)n1

>  <ASSIGNED_LABEL>
0 (no)

$$$$
>  <MOLECULE>
CNC(=O)c1cc(Oc2ccc3nc(NC(=O)c4ccc(CN5CCN(C)CC5)c(C(F)(F)F)c4)sc3c2)ccn1

>  <ASSIGNED_LABEL>
0 (no)

$$$$
>  <MOLECULE>
COc1ccc(NS(=O)(=O)c2ccc(-c3cnc(C4CC4)o3)cc2)cc1Cl

>  <ASSIGNED_LABEL>
0 (no)

$$$$
>  <MOLECULE>
Cc1cc(NS(=O)(=O)c2ccc(-c3cnc(C4CC4)o3)cc2)ccc1I

>  <ASSIGNED_LABEL>
0 (no)

$$$$
>  <MOLECULE>
CC1(C)CC[C@]2(C(=O)N3CCCNCC3)CC[C@]3(C)C(=CC[C@@H]4[C@@]5(C)CCC(=O)C(C)(C)[C@@H]5CC[C@]43C)[C@H]2C1

>  <ASSIGNED_LABEL>
0 (no)

$$$$
>  <MOLECULE>
CC[C@@](C)(NC(=O)C(C)(C)NC(=O)[C@@H](NC(=O)[C@@H]1CCCN1C(=O)C(C)(C)NC(=O)[C@H](CC(C)C)NC(=O)CNC(=O)C(C)(C)NC(=O)[C@@H](NC(=O)C(C)(C)NC(=O)[C@H](CCC(N)=O)NC(=O)[C@H](C)NC(=O)C(C)(C)NC(=O)[C@H](C)NC(=O)C(C)(C)NC(=O)[C@@H]1CCCN1C(=O)C(C)(C)NC(C)=O)C(C)C)C(C)C)C(=O)N[C@@H](CCC(N)=O)C(=O)N[C@@H](CCC(N)=O)C(=O)N[C@H](CO)Cc1ccccc1

>  <ASSIGNED_LABEL>
0 (no)

$$$$
>  <MOLECULE>
COc1cc(C(=O)C[n+]2ccc3ccccc3c2)cc(OC)c1OC

>  <ASSIGNED_LABEL>
0 (no)

$$$$
>  <MOLECULE>
O=C1c2c(c3c4ccc(Br)cc4oc3c3[nH]c4ccccc4c23)C(=O)N1CCO

>  <ASSIGNED_LABEL>
0 (no)

$$$$
>  <MOLECULE>
Cc1ccc(/C=C/c2nn3c(-c4ccco4)nnc3s2)cc1

>  <ASSIGNED_LABEL>
0 (no)

$$$$
>  <MOLECULE>
C=CCn1c(SCC(=O)Nc2cccc(C(=O)/C=C/c3ccc(OC)c(OC)c3)c2)nc2ccccc2c1=O

>  <ASSIGNED_LABEL>
0 (no)

$$$$
>  <MOLECULE>
COc1cccc(/C=C/C(=O)c2ccc(NC(=O)COc3cccc4cccnc34)cc2)c1

>  <ASSIGNED_LABEL>
0 (no)

$$$$
>  <MOLECULE>
Cc1nn(-c2ccccc2)c2nc(CCl)[nH]c(=O)c12

>  <ASSIGNED_LABEL>
0 (no)

$$$$
>  <MOLECULE>
Cn1ccnc1C(=O)/C=C/c1ccc(C(=O)Nc2ccc(NC(=O)CCNC(=O)c3csc(Br)n3)cc2)cc1

>  <ASSIGNED_LABEL>
0 (no)

$$$$
>  <MOLECULE>
CC(C)=CCc1c(O)c(CC=C(C)C)c2c(c1O)C(=O)C1=C[C@@H]3C[C@H]4C(C)(C)O[C@@](C/C=C(\C)C(=O)O)(C3=O)[C@@]14O2

>  <ASSIGNED_LABEL>
1 (yes)

$$$$
>  <MOLECULE>
O=C(CN1C(=O)S/C(=C\c2ccccc2)C1=O)Nc1ccc(C(=O)/C=C/c2cc3ccccc3nc2Cl)cc1

>  <ASSIGNED_LABEL>
0 (no)

$$$$
>  <MOLECULE>
COC[C@@]1(C)CC[C@]2(C)CC[C@]3(C)C(=CC[C@@H]4[C@@]5(C)CCCNC(C)(C)[C@@H]5CC[C@]43C)C2C1 (stereo not given in full)

>  <ASSIGNED_LABEL>
0 (no)

$$$$
>  <MOLECULE>
Cc1ccc(Cc2cnc(NC(=O)/C(C#N)=C/c3ccc(-c4ccc(Cl)cc4)o3)s2)cc1

>  <ASSIGNED_LABEL>
0 (no)

$$$$
>  <MOLECULE>
CS(=O)c1nccc(-c2c(-c3ccc(F)c(OCCc4ccc(F)cc4)c3)nc3sccn23)n1 (stereo not given)

>  <ASSIGNED_LABEL>
0 (no)

$$$$
>  <MOLECULE>
Nc1nc(-c2cccc([N+](=O)[O-])c2)c(N=Nc2ccccc2[N+](=O)[O-])s1

>  <ASSIGNED_LABEL>
0 (no)

$$$$
>  <MOLECULE>
COc1ccc([C@@H]2[C@@H](O)C(=O)N2c2cc(OC)c(OC)c(OC)c2)cc1Cl

>  <ASSIGNED_LABEL>
0 (no)

$$$$
>  <MOLECULE>
O=C(/C=C1\C=CN(CCCCO)c2ccccc21)n1ccc2ccccc21

>  <ASSIGNED_LABEL>
0 (no)

$$$$
